Reported IC50 (pM), ISRE assay values are given for each entry in this list.
test.target: IFN-αJ1 (human, UniProt P01567 24-189)
experimental.protocol: cell-based or functional assay
Give the value in pM but do not write pM after it.

Req: Suppose we examine the binder IFWM3410 (antibody, IgG1, V domains shown) VH: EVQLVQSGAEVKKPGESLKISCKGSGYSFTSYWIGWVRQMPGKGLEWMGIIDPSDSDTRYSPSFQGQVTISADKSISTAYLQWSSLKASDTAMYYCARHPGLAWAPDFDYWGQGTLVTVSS VL: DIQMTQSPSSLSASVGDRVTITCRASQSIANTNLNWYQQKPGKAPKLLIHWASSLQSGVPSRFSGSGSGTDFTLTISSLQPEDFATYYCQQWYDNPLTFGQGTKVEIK ; what IC50 (pM), ISRE assay value has been reported?
Resp: 217

Req: Please look up its IC50 (pM), ISRE assay: IFWM3307 (antibody, IgG1, V domains shown) VH: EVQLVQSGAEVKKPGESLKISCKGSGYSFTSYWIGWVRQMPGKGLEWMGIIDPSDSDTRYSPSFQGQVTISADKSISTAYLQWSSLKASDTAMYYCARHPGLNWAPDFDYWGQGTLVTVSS VL: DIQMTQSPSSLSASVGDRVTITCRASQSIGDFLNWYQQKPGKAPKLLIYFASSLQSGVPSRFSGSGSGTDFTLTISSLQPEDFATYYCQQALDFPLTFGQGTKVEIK
Resp: 328

Req: Consider the binder shown here: IFWM3332 (antibody, IgG1, V domains shown) VH: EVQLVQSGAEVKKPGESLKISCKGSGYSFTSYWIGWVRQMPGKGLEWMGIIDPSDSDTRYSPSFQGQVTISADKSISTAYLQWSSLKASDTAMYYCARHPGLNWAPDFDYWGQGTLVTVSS VL: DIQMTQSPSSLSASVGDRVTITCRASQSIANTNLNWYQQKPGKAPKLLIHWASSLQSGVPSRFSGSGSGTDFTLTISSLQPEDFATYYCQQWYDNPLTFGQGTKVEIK What is its recorded IC50 (pM), ISRE assay?
Resp: 487
